test: NCI Yeast Anticancer Drug Screen. Data for the mec2-1 strain (AID 157); details: S. cerevisiae mec2-1 strain, at 50.0 µM, hits give high values
Compounds without any hit were thinned out: in the full panel of roughly 79,000, 15% have a hit.
Parameter: growth inhibition. Scope: all listed entries.
Use % as the unit, but write only the number.

Guide cases for growth inhibition, answers given:
> print(dat)
                                   molecule       readout.kind  reported.measurement
1  COc1c(-c2ccccc2)c(=O)n2c3cc(C)c(C)cc3n(C)c2c1C#N  growth inhibition                  -0.4
2  CCOC(=O)CCCN(c1sc(C)c(-c2ccccc2)c1C(=O)OCC)S(=O)(=O)c1ccc(C)cc1  growth inhibition                 -3.25
3  CC12CCC(/C(=C/N3CCCCC3)C1=O)C2(C)C (stereo unspecified)  growth inhibition                  10.2
4      O=c1cc(-c2cccc3ccccc23)[nH]c2ncccc12  growth inhibition                 -10.7
5            O=[N+]([O-])c1cc(Br)c2ccccc2c1  growth inhibition                   4.9

Field request: growth inhibition | item: COc1cc2c(c([N+](=O)[O-])c1)NC(=O)C(C)S2 (stereo unspecified)
-33.6

Query (molecule): COc1ccc(CC(N)C(=O)N(C)C2C(CO)OC(n3cnc4c(N(C)C)ncnc43)C2O)cc1 (stereo unspecified) ; field requested: growth inhibition
-10.8

What does the record list as growth inhibition for `N/C(=N\S(=O)(=O)c1cc(C(F)(F)F)cc(C(F)(F)F)c1)c1ccncc1` ?
11.2

Given the molecule `CS(=O)(=O)NCCBr` , what is its reported growth inhibition?
-3.5

# lookup: growth inhibition of `CN(C)c1ccc(/C=C(\C#N)c2nc(-c3cc4ccccc4oc3=O)cs2)cc1`
-13.6

Quick check: growth inhibition of `COC(=O)C(Br)(C(=O)OC)C(c1ccccc1)c1ccccc1` ?
41.3
